Numbers sourced from patent US20230174523A1.

# Emax per record follows
molecular target: UniProtKB Q12931; assay: ADP Glo assay of TRAP1 ATPase activity; type: biochemical; settings: read-out: ADP GLO DRC: Mean Emax
Sequence (Q12931 60-704): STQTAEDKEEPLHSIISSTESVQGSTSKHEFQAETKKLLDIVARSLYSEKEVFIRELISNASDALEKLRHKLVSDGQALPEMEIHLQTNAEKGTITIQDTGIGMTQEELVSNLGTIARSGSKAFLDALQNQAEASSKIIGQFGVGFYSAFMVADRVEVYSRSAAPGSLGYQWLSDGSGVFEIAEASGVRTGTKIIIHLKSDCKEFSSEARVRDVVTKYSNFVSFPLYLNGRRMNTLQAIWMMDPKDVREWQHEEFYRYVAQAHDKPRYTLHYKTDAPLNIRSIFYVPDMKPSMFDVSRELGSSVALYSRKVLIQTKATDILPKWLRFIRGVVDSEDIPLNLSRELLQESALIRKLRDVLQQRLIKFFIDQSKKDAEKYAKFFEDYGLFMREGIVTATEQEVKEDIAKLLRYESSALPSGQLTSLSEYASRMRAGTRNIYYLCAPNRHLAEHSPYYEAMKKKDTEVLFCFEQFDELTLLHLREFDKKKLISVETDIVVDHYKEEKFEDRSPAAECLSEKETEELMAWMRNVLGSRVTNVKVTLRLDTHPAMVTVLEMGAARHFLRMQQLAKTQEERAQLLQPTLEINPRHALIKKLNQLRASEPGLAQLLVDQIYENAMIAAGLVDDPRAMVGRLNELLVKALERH
Assay Readout: Emax

[[record]]
item_smiles = "N#Cc1ccc(C(=O)Nc2ccc(F)c(S(=O)(=O)Nc3ccc(Cl)cc3)c2)c(C(F)(F)F)n1"
assay_readout = "Emax"
result = "123 to 159%"

[[record]]
item_smiles = "COc1ccc(NC(=O)c2cc(C(C)C)on2)cc1S(=O)(=O)Nc1c(C)cccc1C"
assay_readout = "Emax"
result = "200 to 300%"

[[record]]
item_smiles = "COc1ccc(NC(=O)c2ccc3ncsc3c2)cc1S(=O)(=O)Nc1c(C)cccc1C"
assay_readout = "Emax"
result = "160 to 199%"

[[record]]
item_smiles = "O=C(Nc1ccc(F)c(S(=O)(=O)Nc2ccc(Cl)cc2)c1)c1scnc1C1CC1"
assay_readout = "Emax"
result = "160 to 199%"

[[record]]
item_smiles = "COc1ccc(NC(=O)c2cnn(-c3ccc(Cl)cc3)c2C)cc1S(=O)(=O)Nc1c(C)cccc1C"
assay_readout = "Emax"
result = "160 to 199%"

[[record]]
item_smiles = "Cc1nc(C(=O)Nc2ccc(F)c(S(=O)(=O)Nc3ccc(Cl)cc3)c2)c(C)s1"
assay_readout = "Emax"
result = "123 to 159%"

[[record]]
item_smiles = "COc1ccc(NC(=O)c2c[nH]c(-c3c(F)cccc3F)n2)cc1S(=O)(=O)Nc1ccc(Br)cc1"
assay_readout = "Emax"
result = "160 to 199%"

[[record]]
item_smiles = "COc1ccc(NC(=O)c2cnc(C3CC3)o2)cc1S(=O)(=O)Nc1c(C)cccc1C"
assay_readout = "Emax"
result = "160 to 199%"

